# MEASUREMENT TARGET: T1, cynomolgus soluble ULBP5 (cULBP5) (cynomolgus)
# T1 construct: also called Cyno-cULBP5
# T1 chain: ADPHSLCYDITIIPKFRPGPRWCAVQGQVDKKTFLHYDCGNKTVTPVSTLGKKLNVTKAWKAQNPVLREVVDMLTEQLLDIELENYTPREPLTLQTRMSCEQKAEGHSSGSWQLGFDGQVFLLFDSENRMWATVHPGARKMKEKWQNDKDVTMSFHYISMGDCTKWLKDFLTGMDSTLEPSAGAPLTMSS
# ASSAY PROCEDURE: SPR (BIACORE 8K, 37 C); antibody captured on Protein A, soluble ULBP injected;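 further: ligand injected as threefold dilution series in HBS-P (highest 10 or 50 nM), reference-cell and buffer-subtracted sensorgrams fitted with a 1:1 Langmuir model for on and off rates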
MEASUREMENT TYPE: Kd (nM)
Give the value, in units of nM, as a plain number.

Fill in reported Kd for this entry: humanized 1D4 (h1D4), Fc version not stated (antibody, V domains shown, Recombinant humanized antibody, hIgG1 backbone with kappa light chain; also called hiD4; hu1D4) VH: EIQLVQSGSELKKPGASVKVSCKASGYTFTEYPIHWVRQAPGQGFEWMGMIYTDTGEPTHAEEFKGRFVFSLDTSVSTAYLQISSLKAEDTAVYFCVRWYDGSSYIMDYWGQGTTVTVSS VL: DIQMTQSPSSLSASVGDRVTITCKASQDINSYLSWFQQKPGKSPKTLIYRANRLVDGVPSRFSGSGSGQDYTFTISSLQPEDIATYYCLQYDEFPLTFGGGTKVEIK
0.735

Kindly indicate its recorded Kd. Item: humanized 6E1 (h6E1), Fc version not stated (antibody, V domains shown, Recombinant humanized antibody, hIgG1 backbone with kappa light chain; also called hu6E1; PUR3993) VH: EVQLVQSGAEVKKPGASVKVSCKASGYTFTNYWMHWMRQAPGQGLEWLGRIHPSDSDTNYNQKFKGRATLTVDKSISTAYMELSRLRSDDTAVYYCAIEGTGKGYFDVWGRGTLVTVSS VL: DIQMTQSPSSLSASVGDRVTITCKASQDIYSYLSWFQQKPGKSPKTLIYRANRLVDGVPSRFSGSGSGQDFTLTISSLQPEDFATYYCLHYDEFPLTFGGGTKVEIK
1.51

Dear colleague, please send me the reported Kd for humanized 8E11 (h8E11), Fc version not stated (antibody, V domains shown, Recombinant humanized antibody, hIgG1 backbone with kappa light chain; also called PUR3926) VH: EVQLVESGGGLVQPGGSLRLSCAASGFTFRTYGMHWVRQAPGKGLEWVAYISSGSGTIDYADTVKGRFTISRDNAKNSLYLQMNSLRAEDTAVYYCTRQTGAMDYWGQGTLVTVSS VL: EIVLTQSPATLSLSPGERATLSCSASSSVSYMNWYQQKPGQSPRLWIYGISNLASGVPARFSGSGSGTDFTLTISSLEPEDFAVYYCQQRSSHPLTFGGGTKVEIK when you can.
23.9

Indicate its recorded Kd; the binder in question is humanized 7B3 (h7B3), Fc version not stated (antibody, V domains shown, Recombinant humanized antibody, hIgG1 backbone with kappa light chain; also called hu7B3; PUR3922) VH: EVQLVESGGGLVQPGGSLRLSCAASGFTFSTYGFHWVRQAPGKGLEWVAYISSNSGTIDYADTVKGRFTISRDNAKNSLYLQMNSLRAEDTAVYYCARQGYGFDNWGQGTTVTVSS VL: DIQLTQSPSSLSASVGDRVTITCSASSRVSYMNWYQQKPGKSPKIWVYGISNLASGVPSRFSGSGSGTDFTFTISSLQPEDIATYYCQQRSSHPLTFGGGTKVEIK
6.13
